molecular target: BACE1 (Homo sapiens, UniProt P56817)
Sequence (P56817 46-501, species assumed): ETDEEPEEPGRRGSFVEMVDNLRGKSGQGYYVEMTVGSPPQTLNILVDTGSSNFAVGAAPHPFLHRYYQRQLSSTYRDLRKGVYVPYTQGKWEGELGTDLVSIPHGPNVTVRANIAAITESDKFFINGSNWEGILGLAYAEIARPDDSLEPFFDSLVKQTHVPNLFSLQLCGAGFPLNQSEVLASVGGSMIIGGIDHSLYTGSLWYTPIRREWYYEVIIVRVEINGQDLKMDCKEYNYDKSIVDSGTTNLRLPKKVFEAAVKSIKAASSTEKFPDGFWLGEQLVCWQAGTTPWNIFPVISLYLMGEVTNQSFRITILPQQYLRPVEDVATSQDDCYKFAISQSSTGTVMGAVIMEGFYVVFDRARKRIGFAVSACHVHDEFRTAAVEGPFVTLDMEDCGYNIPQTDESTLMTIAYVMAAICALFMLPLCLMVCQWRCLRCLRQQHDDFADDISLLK
pIC50: −log10 of the molar value.
Listing of recorded pIC50 by entry.

Cc1ccccc1-c1ccc2nc(N)c(CCc3cnn(Cc4ccccc4)c3)cc2c1; 6.00 to 7.00

Request: What value of pIC50 has been recorded for this entry: `CCc1cncc(CCc2cc3cc(-c4ccccc4C)ccc3nc2N)c1`
Result: 5.30 to 6.00

Request: What value of pIC50 has been recorded for this entry: Cc1ccccc1-c1ccc2nc(N)c(CC(C)c3cc(C4CCCC4)ncn3)cc2c1 (centres unmarked)
Result: > 7.00

Request: What value of pIC50 has been recorded for this entry: Cc1cccc(C(=O)N2CCCC2C)c1-c1ccc2nc(N)c(CCc3cncnc3)cc2c1 (racemic)
Result: > 7.00

Request: What value of pIC50 has been recorded for this entry: Cc1cccnc1-c1ccc2nc(N)c(CC(C)c3cc(CC(C)(C)C)ncn3)cc2c1 (centres unmarked)
Result: 6.00 to 7.00

Request: What value of pIC50 has been recorded for this entry: `Cc1cccnc1-c1ccc2nc(N)c(CCc3cc(C(C)(C)C)ncn3)cc2c1`
Result: 6.00 to 7.00

Request: What value of pIC50 has been recorded for this entry: `Cc1ccccc1-c1ccc2nc(N)c(CCc3cnn(C4CCCCC4)c3)cc2c1`
Result: > 7.00

Request: What value of pIC50 has been recorded for this entry: `Cc1ccccc1-c1ccc2nc(N)c(C=Cc3cncc(C4=CCCCC4)c3)cc2c1`
Result: 6.00 to 7.00
